Data credit: the supplement of paper PMC4466140

target: AgHof1
test.name: SPOT peptide array binding signal intensity (averaged, normalized) (arbitrary units (background-subtracted, floor 0; scale differs between SH3 domains)); higher = stronger binding of the SH3 domain to the peptide
reported.property: SPOT peptide array binding signal intensity

| binder | relation.symbol | recorded.number |
| --- | --- | --- |
| PSTMDFPKLPSFQNS | = | 63.2 |
| SAPDIPPRSPNRNAH | ≤ | 0 |
| SKAKRPKFLLDLQIK | = | 16.5 |
| VPPPMQPPPIESSNL | = | 0.25 |
| KLSRGRYGLPLSSRP | = | 20.5 |
| EREKALPPIPFTTTL | = | 132 |
| NRARYLPQNPDIIAG | = | 3.5 |
| PLQSKIPMLPSRRTM | = | 211 |
| RPVPRRPSQPLNTLS | = | 32.8 |
| LKHGWKPLRPIKLIS | = | 21.5 |
| DGNEEKPLLPTRPNK | = | 23.8 |
| SRSKPLPLTPNSKYN | = | 24.2 |
| NPLPKEPRLPKRKVA | = | 28 |
| EAEEAAPQLPSRSSA | = | 0.5 |
| KKEKKPPKIPKKVYT | = | 29.2 |
